B1: SMG5 (parent)
chain: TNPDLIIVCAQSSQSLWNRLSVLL

variants of: B1; experiment: protein stability index of a GFP-peptide fusion (GPS, HEK-293T) (PSI 1-6); higher = more stable; conditions: c terminus: a fixed tail appended;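 also: lentivirally expressed fusions sorted by FACS into six bins by GFP to DsRed ratio, PSI derived from sequencing read proportions per bin multiplied by bin number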
Response key: 1 means protein stability index >= 3; -1 means protein stability index < 3.

>  <mutation-label>
I6T

>  <cat>
-1

$$$$
>  <mutation-label>
S12L

>  <cat>
1

$$$$
>  <mutation-label>
Q14S

>  <cat>
-1

$$$$
>  <mutation-label>
I6M

>  <cat>
-1

$$$$
>  <mutation-label>
L20K

>  <cat>
-1

$$$$
>  <mutation-label>
L16E

>  <cat>
-1

$$$$
>  <mutation-label>
L5H

>  <cat>
-1

$$$$
>  <mutation-label>
L5R

>  <cat>
-1

$$$$
>  <mutation-label>
P3I

>  <cat>
1

$$$$
>  <mutation-label>
T1A

>  <cat>
-1

$$$$
>  <mutation-label>
L16A

>  <cat>
-1

$$$$
>  <mutation-label>
V22L

>  <cat>
1

$$$$
>  <mutation-label>
N18T

>  <cat>
-1

$$$$
>  <mutation-label>
W17V

>  <cat>
-1

$$$$
>  <mutation-label>
L16T

>  <cat>
1

$$$$
>  <mutation-label>
V22R

>  <cat>
-1

$$$$
>  <mutation-label>
A10W

>  <cat>
-1

$$$$
>  <mutation-label>
L5Y

>  <cat>
-1

$$$$
>  <mutation-label>
P3E

>  <cat>
-1

$$$$
>  <mutation-label>
R19D

>  <cat>
1

$$$$
>  <mutation-label>
V8R

>  <cat>
-1

$$$$
>  <mutation-label>
C9N

>  <cat>
-1

$$$$
>  <mutation-label>
A10F

>  <cat>
1

$$$$
>  <mutation-label>
P3D

>  <cat>
-1

$$$$
>  <mutation-label>
N18Q

>  <cat>
-1

$$$$
>  <mutation-label>
P3M

>  <cat>
-1

$$$$

Source: the supplement of paper PMC10567573
